Entries and their measured logD at 7 h follow.
- protocolDescription: 1-Octanol/PBS partition coefficient, logD of the compound at pH 7.4 incubated for 7 hrs by shake flask technique based HPLC-UV analysis
- Format: physicochemical
Number only, please.

Example results:
structureString	logD at 7 h
CC(C)CNc1nc(Nc2ccc(S(=O)(=O)N3CCN(C)CC3)cc2)nc2ccccc12	3.68
CC(C)CNc1nc(Nc2cccc(S(=O)(=O)N3CCN(C)CC3)c2)nc2ccccc12	3.55

Fill in: logD at 7 h of `CCCNc1nc(Nc2ccc(S(=O)(=O)N3CCN(C)CC3)cc2)nc2ccccc12` is ___ 3.92

====

- target: cGMP-specific 3',5'-cyclic phosphodiesterase (Homo sapiens)
- protocolDescription: Inhibition of human PDE5 using [3H]cGMP as substrate at 1 uM incubated for 10 mins by liquid scintillation counter analysis relative to control
valueKind: inhibition (%)
Write the number in % without appending the unit.

Example results:
structureString	target	inhibition, %
CN1CCN(S(=O)(=O)c2cccc(Nc3nc(NCc4cccs4)c4ccccc4n3)c2)CC1	cGMP-specific 3',5'-cyclic phosphodiesterase (Homo sapiens)	93.9
CN1CCN(S(=O)(=O)c2cccc(Nc3nc(NCc4ccccc4)c4nc[nH]c4n3)c2)CC1	cGMP-specific 3',5'-cyclic phosphodiesterase (Homo sapiens)	99.3
CCCNc1nc(Nc2cccc(S(=O)(=O)N3CCN(C)CC3)c2)nc2ccccc12	cGMP-specific 3',5'-cyclic phosphodiesterase (Homo sapiens)	96.9

Fill in: inhibition of `NS(=O)(=O)c1cccc(Nc2nc(NC3CCN(Cc4ccccc4)CC3)c3nc[nH]c3n2)c1` is ___ 94.3

Fill in: inhibition of `CC(C)CNc1nc(Nc2cccc(S(=O)(=O)N3CCN(C)CC3)c2)nc2c1ncn2C` is ___ 91.8
